biological target: Voltage-dependent T-type calcium channel subunit alpha-1G (Homo sapiens); test: Inhibition of T-type CaV3.1 channel (unknown origin) expressed in HEK293 cells assessed as inhibition of calcium current at 1 uM by whole cell patch-clamp method; format: cell-based
Sequence (O43497 whole entry): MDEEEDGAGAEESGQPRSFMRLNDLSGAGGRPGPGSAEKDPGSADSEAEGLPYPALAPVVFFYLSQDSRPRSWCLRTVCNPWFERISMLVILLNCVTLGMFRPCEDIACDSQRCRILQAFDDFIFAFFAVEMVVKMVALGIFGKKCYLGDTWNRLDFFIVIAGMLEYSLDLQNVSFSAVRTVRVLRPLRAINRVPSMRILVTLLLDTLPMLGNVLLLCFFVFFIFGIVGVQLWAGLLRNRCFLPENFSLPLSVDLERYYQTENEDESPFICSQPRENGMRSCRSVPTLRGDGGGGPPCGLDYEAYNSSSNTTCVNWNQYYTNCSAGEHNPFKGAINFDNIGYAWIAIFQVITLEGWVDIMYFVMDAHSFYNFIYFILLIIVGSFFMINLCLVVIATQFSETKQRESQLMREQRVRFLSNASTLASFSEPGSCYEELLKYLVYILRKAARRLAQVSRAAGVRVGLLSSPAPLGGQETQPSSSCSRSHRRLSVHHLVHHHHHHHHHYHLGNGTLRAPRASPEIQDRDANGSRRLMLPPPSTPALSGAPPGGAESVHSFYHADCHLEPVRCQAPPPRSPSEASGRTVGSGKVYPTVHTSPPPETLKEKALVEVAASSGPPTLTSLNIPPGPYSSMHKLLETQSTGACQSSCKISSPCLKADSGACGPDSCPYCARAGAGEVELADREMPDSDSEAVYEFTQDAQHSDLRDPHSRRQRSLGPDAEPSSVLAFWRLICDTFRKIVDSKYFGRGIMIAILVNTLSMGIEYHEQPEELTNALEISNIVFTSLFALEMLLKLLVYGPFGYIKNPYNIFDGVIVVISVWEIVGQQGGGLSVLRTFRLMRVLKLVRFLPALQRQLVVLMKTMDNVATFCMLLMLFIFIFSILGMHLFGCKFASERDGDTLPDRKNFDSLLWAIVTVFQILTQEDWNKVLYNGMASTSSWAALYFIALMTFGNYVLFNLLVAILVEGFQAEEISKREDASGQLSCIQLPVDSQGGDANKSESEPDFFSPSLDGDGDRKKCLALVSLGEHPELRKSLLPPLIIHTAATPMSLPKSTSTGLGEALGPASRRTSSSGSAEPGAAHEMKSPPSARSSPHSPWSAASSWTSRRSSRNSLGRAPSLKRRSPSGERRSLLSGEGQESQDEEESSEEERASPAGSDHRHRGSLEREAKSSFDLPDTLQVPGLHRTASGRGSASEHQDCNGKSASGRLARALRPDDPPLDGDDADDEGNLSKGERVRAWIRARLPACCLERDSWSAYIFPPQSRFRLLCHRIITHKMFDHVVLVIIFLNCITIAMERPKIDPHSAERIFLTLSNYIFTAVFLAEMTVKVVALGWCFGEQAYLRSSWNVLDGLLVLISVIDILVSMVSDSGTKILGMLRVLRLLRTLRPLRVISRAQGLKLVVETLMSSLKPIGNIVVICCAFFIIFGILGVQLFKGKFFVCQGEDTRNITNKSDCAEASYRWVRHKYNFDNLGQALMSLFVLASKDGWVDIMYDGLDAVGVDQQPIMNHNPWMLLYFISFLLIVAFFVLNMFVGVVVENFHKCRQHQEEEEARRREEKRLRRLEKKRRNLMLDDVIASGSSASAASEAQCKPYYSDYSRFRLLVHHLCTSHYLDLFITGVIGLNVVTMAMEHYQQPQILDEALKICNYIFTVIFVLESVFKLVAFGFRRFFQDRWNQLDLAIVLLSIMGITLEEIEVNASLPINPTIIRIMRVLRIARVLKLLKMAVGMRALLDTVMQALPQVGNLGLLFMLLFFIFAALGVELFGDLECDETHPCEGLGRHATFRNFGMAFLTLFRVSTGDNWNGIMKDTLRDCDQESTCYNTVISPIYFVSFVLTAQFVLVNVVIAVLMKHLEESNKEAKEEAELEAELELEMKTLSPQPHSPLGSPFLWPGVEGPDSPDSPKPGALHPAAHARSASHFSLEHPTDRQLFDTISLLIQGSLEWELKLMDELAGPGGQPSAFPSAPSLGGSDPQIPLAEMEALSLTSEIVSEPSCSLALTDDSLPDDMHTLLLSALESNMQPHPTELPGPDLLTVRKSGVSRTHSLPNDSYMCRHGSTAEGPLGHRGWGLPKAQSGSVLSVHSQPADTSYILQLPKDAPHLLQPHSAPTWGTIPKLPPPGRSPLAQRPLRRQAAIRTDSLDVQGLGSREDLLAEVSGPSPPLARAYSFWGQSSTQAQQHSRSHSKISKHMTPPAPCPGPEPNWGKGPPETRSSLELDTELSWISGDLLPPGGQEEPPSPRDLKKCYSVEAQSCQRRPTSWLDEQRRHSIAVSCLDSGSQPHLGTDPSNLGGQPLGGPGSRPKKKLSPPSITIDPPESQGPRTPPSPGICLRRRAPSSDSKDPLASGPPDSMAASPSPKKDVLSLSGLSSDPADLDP
Quantity: inhibition (%)
Give bare numbers, in %.

Worked examples follow.
Compound | Number
CN(C)C(=O)NCCCN(C)C1=Nc2ccccc2C(CC(=O)NCc2ccc(F)cc2)N1c1ccc(-c2ccccc2)cc1.Cl (centres undefined) | 53.5
CN(C)CCCCCCN(C)C1=Nc2ccccc2C(CC(=O)NCc2ccccc2)N1c1ccc2ccccc2c1.Cl (centres undefined) | 26.4
CN(C)CCN1CCN(C2=Nc3ccccc3C(CC(=O)NCc3ccccc3)N2c2ccc(C3CCCCC3)cc2)CC1.Cl (centres undefined) | 53.2
COc1ccc(CNC(=O)CC2c3ccccc3N=C(N(C)CCCCCCN(C)C)N2c2ccc3ccccc3c2)cc1.Cl (centres undefined) | 55.2

# batch: return inhibition for each of the 5 compounds below
1. CC(C)c1ccc(N2C(N3CCN(CCN(C)C)CC3)=Nc3ccccc3C2CC(=O)NCc2ccccc2)cc1.Cl (centres undefined)
2. CN(C)CCCCCN(C)C1=Nc2ccccc2C(CC(=O)NCc2ccccc2)N1c1ccc(-c2ccccc2)cc1.Cl.Cl (centres undefined)
3. CN(C)CCN1CCN(C2=Nc3ccccc3C(CC(=O)NCc3ccc([N+](=O)[O-])cc3)N2c2ccc(-c3ccccc3)cc2)CC1.Cl (centres undefined)
4. CN(C)CCN1CCN(C2=Nc3ccccc3C(CC(=O)NCc3ccc(N(S(C)(=O)=O)S(C)(=O)=O)cc3)N2c2ccc(-c3ccccc3)cc2)CC1.Cl (centres undefined)
5. CN(C)CCN1CCN(C2=Nc3ccccc3C(CC(=O)OCc3ccccc3)N2c2ccc(-c3ccccc3)cc2)CC1 (centres undefined)

## Result
1. 39.2
2. 76.6
3. 38.1
4. 64.3
5. 46.4
